Target: T1, human MIC-1 receptor (hGFRAL, GDNF family receptor alpha like) (human, UniProt Q6UXV0 19-394)
T1 sequence (looked up): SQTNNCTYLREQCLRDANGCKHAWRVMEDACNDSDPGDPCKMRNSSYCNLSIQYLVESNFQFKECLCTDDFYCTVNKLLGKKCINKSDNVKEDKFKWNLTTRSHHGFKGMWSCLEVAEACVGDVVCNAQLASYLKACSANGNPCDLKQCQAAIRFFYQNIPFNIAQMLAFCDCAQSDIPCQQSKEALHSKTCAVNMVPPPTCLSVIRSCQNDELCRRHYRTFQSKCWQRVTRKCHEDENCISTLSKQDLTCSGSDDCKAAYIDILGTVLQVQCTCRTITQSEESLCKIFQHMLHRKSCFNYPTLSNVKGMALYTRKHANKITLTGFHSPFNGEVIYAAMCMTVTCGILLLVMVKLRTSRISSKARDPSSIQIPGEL
Experiment: cell-based or functional assay
MEASUREMENT KIND: pERK EC50 (nM)

Take a look at these entries with their results.
INSERT INTO results (binder, u, readout_number) VALUES
  ('MIC-1(R2A, N3E, K69E) (ligand) AAEGDHCPLGPGRCCRLHTVRASLEDLGWADWVLSPREVQVTMCIGACPSQFRAANMHAQIKTSLHRLEPDTVPAPCCVPASYNPMVLIQKTDTGVSLQTYDDLLAKDCHCI', 'nM', 0.5),
  ('AAPEDEETPEQE-MIC-1-Δ1-3 (ligand) AAPEDEETPEQEGDHCPLGPGRCCRLHTVRASLEDLGWADWVLSPREVQVTMCIGACPSQFRAANMHAQIKTSLHRLKPDTVPAPCCVPASYNPMVLIQKTDTGVSLQTYDDLLAKDCHCI', 'nM', 0.5),
  ('AEEAES-MIC-1-Δ1-3 (ligand) AEEAESGDHCPLGPGRCCRLHTVRASLEDLGWADWVLSPREVQVTMCIGACPSQFRAANMHAQIKTSLHRLKPDTVPAPCCVPASYNPMVLIQKTDTGVSLQTYDDLLAKDCHCI', 'nM', 0.3),
  ('AASPAGSPTSTEEGTSESATPESGPG-MIC-1 (SEQ ID NO: 1) (ligand) AASPAGSPTSTEEGTSESATPESGPGARNGDHCPLGPGRCCRLHTVRASLEDLGWADWVLSPREVQVTMCIGACPSQFRAANMHAQIKTSLHRLKPDTVPAPCCVPASYNPMVLIQKTDTGVSLQTYDDLLAKDCHCI', 'nM', 0.4),
  ('(AEE)6AES-MIC-1(SEQ ID NO: 1) (ligand) AEEAEEAEEAEEAEEAEEAESGDHCPLGPGRCCRLHTVRASLEDLGWADWVLSPREVQVTMCIGACPSQFRAANMHAQIKTSLHRLKPDTVPAPCCVPASYNPMVLIQKTDTGVSLQTYDDLLAKDCHCI', 'nM', 0.8);

A = MIC-1(R2A, N3E, A81E) (ligand) AAEGDHCPLGPGRCCRLHTVRASLEDLGWADWVLSPREVQVTMCIGACPSQFRAANMHAQIKTSLHRLKPDTVPAPCCVPESYNPMVLIQKTDTGVSLQTYDDLLAKDCHCI
B = (SEPATSGSETPG)2-MIC-1-Δ1-3(M57E) (ligand) SEPATSGSETPGSEPATSGSETPGGDHCPLGPGRCCRLHTVRASLEDLGWADWVLSPREVQVTMCIGACPSQFRAANEHAQIKTSLHRLKPDTVPAPCCVPASYNPMVLIQKTDTGVSLQTYDDLLAKDCHCI
### Prompt Task for the reader: decide whether A or B has the larger pERK EC50 (nM). Kindly state the label of the option you pick.
### Response B
(B: 0.6 nM, A: 0.3 nM)
